# Lookup of reported Vmax keyed by entry
substrate: [H][C@]12C[C@]([H])(OO1)[C@H](C/C=C\CCCC(=O)O)[C@H]2/C=C/[C@@H](O)CCCCC; assay: purified protein, by the assay type; conditions: pH 8.0; 25.0 °C
The figure you give is taken to be in µmol/min/mg; do not add the unit.

{"columns": ["protein", "result_units", "Vmax"],
 "data": [
  ["mouse Δ1–24-L-PGDS (lipocalin type prostaglandin D synthase) (Mus musculus; S45A/S81A/T67A) (protein) QGHDTVQPNFQQDKFLGRWYAAGLASNSSWFREKKAVLYMCKAVVAPSTEGGLNLTATFLRKNQCETKIMVLQPAGAPGHYTYSSPHSGSIHSVSVVEANYDEYALLFSRGTKGPGQDFRMATLYSRTQTLKDELKEKFTTFSKAQGLTEEDIVFLPQPDKCIQE", "µmol/min/mg", 0.5],
  ["Δ^1–24-L-PGDS + S45A/S81A (Mus musculus; S45A/S81A) (protein) MAALRMLWMGLVLLGLLGFPQTPAQGHDTVQPNFQQDKFLGRWYAAGLASNSSWFREKKAVLYMCKTVVAPSTEGGLNLTATFLRKNQCETKIMVLQPAGAPGHYTYSSPHSGSIHSVSVVEANYDEYALLFSRGTKGPGQDFRMATLYSRTQTLKDELKEKFTTFSKAQGLTEEDIVFLPQPDKCIQE", "µmol/min/mg", 1.5]
]}

Shift focus to the following entry.
Which Vmax value belongs to mouse Δ1–24-L-PGDS (lipocalin type prostaglandin D synthase) (Mus musculus; S81A) (protein) QGHDTVQPNFQQDKFLGRWYSAGLASNSSWFREKKAVLYMCKTVVAPSTEGGLNLTATFLRKNQCETKIMVLQPAGAPGHYTYSSPHSGSIHSVSVVEANYDEYALLFSRGTKGPGQDFRMATLYSRTQTLKDELKEKFTTFSKAQGLTEEDIVFLPQPDKCIQE ?
4.7
